Every entry's value here was drawn from the kinase profiling compilation of Christmann-Franck et al. (2016).

Give measured residual activity for each item. Keep answers brief.
- assayed-target: UniProt Q9P1W9
- Sequence (Q9P1W9 whole entry, looked up): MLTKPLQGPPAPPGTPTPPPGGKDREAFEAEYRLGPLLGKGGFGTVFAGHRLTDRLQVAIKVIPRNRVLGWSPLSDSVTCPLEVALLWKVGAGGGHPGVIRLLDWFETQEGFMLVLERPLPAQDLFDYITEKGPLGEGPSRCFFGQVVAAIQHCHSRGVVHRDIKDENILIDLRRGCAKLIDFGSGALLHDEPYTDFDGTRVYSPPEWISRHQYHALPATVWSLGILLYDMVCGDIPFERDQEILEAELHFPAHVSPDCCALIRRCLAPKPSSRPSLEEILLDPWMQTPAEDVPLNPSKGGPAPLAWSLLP
- method-summary: radiometric filter-binding kinase assay, Kinase HotSpot
- condition-details: compound 0.5 µM; ATP 10 µM

Look up residual activity of CO[C@H]1CC2CC[C@@H](C)[C@@](O)(O2)C(=O)C(=O)N2CCCC[C@H]2C(=O)OC([C@H](C)C[C@@H]2CC[C@@H](O)[C@H](OC)C2)CC(=O)[C@H](C)/C=C(\C)[C@@H](O)[C@@H](OC)C(=O)[C@H](C)C[C@H](C)/C=C/C=C/C=C/1C (stereo not given in full) and report it.
102%

Look up residual activity of Cc1[nH]c(/C=C2\C(=O)Nc3ccc(S(=O)(=O)N(C)c4cccc(Cl)c4)cc32)c(C)c1C(=O)N1CCN(C)CC1 and report it.
103%

Look up residual activity of CC#CC(=O)Nc1cc2c(Nc3ccc(F)c(Cl)c3)ncnc2cn1 and report it.
111%

Look up residual activity of Cc1ccc(S(=O)(=O)/C=C/C#N)cc1 and report it.
103%

Look up residual activity of Nc1cccc(-c2cc3c(Oc4cccc(O)c4)ncnc3[nH]2)c1 and report it.
108%

Look up residual activity of CCC(=O)Nc1ccc2ncnc(Nc3cccc(Br)c3)c2c1 and report it.
90.3%

Look up residual activity of O=C1NC(=O)c2c1c1c3ccccc3n3c1c1c2c2ccccc2n1C1CCC3O1 and report it.
1.86%

Look up residual activity of N#CC(C#N)=C(N)/C(C#N)=C/c1ccc(O)cc1 and report it.
88.2%

Look up residual activity of CCN(CC)C(=O)c1ccc(Nc2nc(OCC3CCCCC3)c3nc[nH]c3n2)cc1 and report it.
105%

Look up residual activity of O=c1cc(N2CCOCC2)oc2c1ccc1ccccc12 and report it.
78.8%

Look up residual activity of Cc1ccc(Nc2nccc(N(C)c3ccc4c(C)n(C)nc4c3)n2)cc1S(N)(=O)=O and report it.
101%

Look up residual activity of O=S(=O)(c1cccc2cnccc12)N1CCCNCC1 and report it.
93.2%

Look up residual activity of COc1ccc2c(c[n+](C)c3c4cc5c(cc4ccc23)OCO5)c1OC and report it.
105%

Look up residual activity of CNC(=O)c1cc(Oc2ccc(NC(=O)Nc3ccc(Cl)c(C(F)(F)F)c3)cc2)ccn1 and report it.
103%

Look up residual activity of CC[n+]1c(/C=C/N(C)c2ccccc2)n(-c2ccccc2)c2ccc(-c3nc4ccccc4s3)cc21 and report it.
117%

Look up residual activity of Nc1ncnc2c1c(-c1ccc(Oc3ccccc3)cc1)cn2C1CCCC1 and report it.
110%

Look up residual activity of CNc1cc2c(Nc3cccc(Br)c3)ncnc2cn1 and report it.
102%

Look up residual activity of c1ccc(-c2n[nH]cc2-c2ccnc3ccccc23)nc1 and report it.
115%

Look up residual activity of Cc1ccc(NC2=CC(=O)c3sc(C)nc3C2=O)cc1 and report it.
103%

Look up residual activity of COc1ccc(COc2ccc(Cc3cnc(N)nc3N)cc2OC)cc1 and report it.
107%

###

- assayed-target: DAPK3 (human) (UniProt O43293)
- Sequence (O43293 whole entry, looked up): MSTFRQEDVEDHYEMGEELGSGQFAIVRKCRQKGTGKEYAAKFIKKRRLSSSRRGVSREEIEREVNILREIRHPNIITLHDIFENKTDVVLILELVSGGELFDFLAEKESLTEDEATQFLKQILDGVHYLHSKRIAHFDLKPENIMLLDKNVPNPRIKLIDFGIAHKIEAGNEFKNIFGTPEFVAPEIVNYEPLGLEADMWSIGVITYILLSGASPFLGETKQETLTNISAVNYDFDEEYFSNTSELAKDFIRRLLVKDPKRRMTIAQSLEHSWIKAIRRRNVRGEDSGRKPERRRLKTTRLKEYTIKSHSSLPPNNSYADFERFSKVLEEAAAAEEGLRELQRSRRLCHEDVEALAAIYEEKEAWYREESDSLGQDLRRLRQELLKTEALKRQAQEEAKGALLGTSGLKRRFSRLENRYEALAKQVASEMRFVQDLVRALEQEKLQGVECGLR
- method-summary: radiometric filter-binding kinase assay, Kinase HotSpot
- condition-details: compound 0.5 µM; ATP 10 µM
property-name: residual activity (%)
Quick note: give the figure in %, leave out the unit.

Give reported residual activity for CC#CC(=O)Nc1cc2c(Nc3ccc(F)c(Cl)c3)ncnc2cn1 (DAPK3 (human) (UniProt O43293))
97.8

Give reported residual activity for Nc1cccc(-c2cc3c(Oc4cccc(O)c4)ncnc3[nH]2)c1 (DAPK3 (human) (UniProt O43293))
94

Give reported residual activity for CCN(CC)C(=O)c1ccc(Nc2nc(OCC3CCCCC3)c3nc[nH]c3n2)cc1 (DAPK3 (human) (UniProt O43293))
98.4

Give reported residual activity for CCOC(=O)c1c(C)[nH]c(/C=C2\C(=O)Nc3ccccc32)c1C (DAPK3 (human) (UniProt O43293))
85.1

Give reported residual activity for O=C1NC(=O)c2c1c1c3ccccc3n3c1c1c2c2ccccc2n1C1CCC3O1 (DAPK3 (human) (UniProt O43293))
24.6

Give reported residual activity for CCN(CC)CCNC(=O)c1c(C)[nH]c(/C=C2\C(=O)Nc3ccc(Cl)cc32)c1C (DAPK3 (human) (UniProt O43293))
54.3

Give reported residual activity for CCN(CC)CCNC(=O)c1c(C)[nH]c(/C=C2\C(=O)Nc3ccc(F)cc32)c1C (DAPK3 (human) (UniProt O43293))
74.2

Give reported residual activity for CNc1cc2c(Nc3cccc(Br)c3)ncnc2cn1 (DAPK3 (human) (UniProt O43293))
90.9

Give reported residual activity for c1ccc(-c2n[nH]c3c2oc2ccccc23)cc1 (DAPK3 (human) (UniProt O43293))
91.5

Give reported residual activity for O=C(Nc1cccc(Nc2nccc(Nc3cccc(C(F)(F)F)c3)n2)c1)C1CC1 (DAPK3 (human) (UniProt O43293))
94.3
